assay: Kinematic viscosity at 25° C. (ASTM D7042); format: physicochemical
// boundary case: KV25 equal to 5 cSt maps to 0 (no); strictly smaller maps to 1 (yes)

CC(C)(C)C(=O)OCc1ccccc1 [Solvent E4, Benzyl pivalate] | 1 (yes)
CC(=O)OCCCCCCC(C)C [Solvent C8, isononyl acetate] | 1 (yes)
CC(C)CCCCCCCOC(=O)c1ccccc1 [Solvent C6, isodecyl benzoate] | 0 (no)
CC(C)CCCCCOC(=O)c1ccccc1 [Solvent E3, Isooctyl benzoate] | 0 (no)
CC(=O)OCc1ccccc1 [Solvent C4, Benzyl acetate, reference compound] | 1 (yes)

Hello, is KV25 of the following compound strictly smaller than 5 cSt? CN(C)C(=O)CCCCCC(C)(C)C [Solvent E5, N,N-dimethyl neodecanamide]
0 (no)

Hello, is KV25 of the following compound strictly smaller than 5 cSt? CCC(C)OC(=O)c1ccccc1 (stereo not drawn) [Solvent E1, Secondary butyl benzoate]
1 (yes)

Hello, is KV25 of the following compound strictly smaller than 5 cSt? CC(=O)OCCCCCC(C)C [Solvent C7, isooctyl acetate]
1 (yes)

Hello, is KV25 of the following compound strictly smaller than 5 cSt? CCCCCCCCCC(=O)N(C)C [Solvent C5, linear N,N-dimethyldecanamide, reference compound]
0 (no)

Hello, is KV25 of the following compound strictly smaller than 5 cSt? CCC(C)OC(=O)c1ccc(C(=O)OC(C)CC)o1 (stereo not drawn) [Solvent C1, Di-sec butyl furan-2,5-dicarboxylate, reference compound]
0 (no)

Hello, is KV25 of the following compound strictly smaller than 5 cSt? CCCCOC(=O)c1ccccc1 [Solvent C3, Butyl benzoate, reference compound]
1 (yes)

Hello, is KV25 of the following compound strictly smaller than 5 cSt? O=C(OC1CCCCC1)c1ccccc1 [Solvent E2, Cyclohexyl benzoate]
0 (no)

---

test: Pour point (ASTM D5950); format: physicochemical
Measured Pour Point of individual entries
# unit: °C | format: bare number

Recorded Pour Point, per entry:
CC(=O)OCc1ccccc1 [Solvent C4, Benzyl acetate, reference compound] | −90
CN(C)C(=O)CCCCCC(C)(C)C [Solvent E5, N,N-dimethyl neodecanamide] | −72
CC(C)(C)C(=O)OCc1ccccc1 [Solvent E4, Benzyl pivalate] | −90
CC(=O)OCCCCCC(C)C [Solvent C7, isooctyl acetate] | −105
CCCCCCCCCC(=O)N(C)C [Solvent C5, linear N,N-dimethyldecanamide, reference compound] | −6
CC(=O)OCCCCCCC(C)C [Solvent C8, isononyl acetate] | −102
CC(C)CCCCCCCOC(=O)c1ccccc1 [Solvent C6, isodecyl benzoate] | −69
O=C(OC1CCCCC1)c1ccccc1 [Solvent E2, Cyclohexyl benzoate] | −54

// lookup Pour Point for CCC(C)OC(=O)c1ccccc1 (stereo not shown) [Solvent E1, Secondary butyl benzoate]
−81

// lookup Pour Point for CCCCOC(=O)c1ccccc1 [Solvent C3, Butyl benzoate, reference compound]
−36

---

Measured Water solubility in solvent of individual entries
test: Water solubility in solvent; format: physicochemical; conditions: 20 g solvent mixed with 20 g water, phases separated 24 hours, solvent layer tested
# unit: vol % | format: bare number

Recorded Water solubility in solvent, per entry:
CC(=O)OCCCCCCC(C)C [Solvent C8, isononyl acetate] | 0.369
CC(C)CCCCCOC(=O)c1ccccc1 [Solvent E3, Isooctyl benzoate] | 0.265
CC(=O)OCCCCCC(C)C [Solvent C7, isooctyl acetate] | 0.448

// lookup Water solubility in solvent for CN(C)C(=O)CCCCCC(C)(C)C [Solvent E5, N,N-dimethyl neodecanamide]
2.457

// lookup Water solubility in solvent for CCC(C)OC(=O)c1ccccc1 (stereo not drawn) [Solvent E1, Secondary butyl benzoate]
0.386

// lookup Water solubility in solvent for CCC(C)OC(=O)c1ccc(C(=O)OC(C)CC)o1 (stereo not drawn) [Solvent C1, Di-sec butyl furan-2,5-dicarboxylate, reference compound]
0.699

// lookup Water solubility in solvent for CC(C)(C)C(=O)OCc1ccccc1 [Solvent E4, Benzyl pivalate]
0.422

// lookup Water solubility in solvent for O=C(OC1CCCCC1)c1ccccc1 [Solvent E2, Cyclohexyl benzoate]
0.394

// lookup Water solubility in solvent for CC(C)CCCCCCCOC(=O)c1ccccc1 [Solvent C6, isodecyl benzoate]
0.173

---

assay: Solvency test, active ingredient trifluralin; type: physicochemical; conditions: wt % active ingredient in solution; highest concentration with no crystals at room temperature
Measured Solvency, Trifluralin of individual entries
# unit: wt % | format: bare number

CC(C)CCCCCOC(=O)c1ccccc1 [Solvent E3, Isooctyl benzoate] | 64.1
CC(C)(C)C(=O)OCc1ccccc1 [Solvent E4, Benzyl pivalate] | 69.5
CCCCCCCCCC(=O)N(C)C [Solvent C5, linear N,N-dimethyldecanamide, reference compound] | 62.4

// lookup Solvency, Trifluralin for CC(=O)OCCCCCC(C)C [Solvent C7, isooctyl acetate]
77.3

// lookup Solvency, Trifluralin for CN(C)C(=O)CCCCCC(C)(C)C [Solvent E5, N,N-dimethyl neodecanamide]
65.0

// lookup Solvency, Trifluralin for CCC(C)OC(=O)c1ccc(C(=O)OC(C)CC)o1 (stereo not drawn) [Solvent C1, Di-sec butyl furan-2,5-dicarboxylate, reference compound]
37.1

// lookup Solvency, Trifluralin for CCC(C)OC(=O)c1ccccc1 (stereo not drawn) [Solvent E1, Secondary butyl benzoate]
72.6

// lookup Solvency, Trifluralin for CCCCOC(=O)c1ccccc1 [Solvent C3, Butyl benzoate, reference compound]
62.8

// lookup Solvency, Trifluralin for CC(=O)OCCCCCCC(C)C [Solvent C8, isononyl acetate]
72.9

// lookup Solvency, Trifluralin for CC(=O)OCc1ccccc1 [Solvent C4, Benzyl acetate, reference compound]
61.2

// lookup Solvency, Trifluralin for O=C(OC1CCCCC1)c1ccccc1 [Solvent E2, Cyclohexyl benzoate]
66.8

// lookup Solvency, Trifluralin for CC(C)CCCCCCCOC(=O)c1ccccc1 [Solvent C6, isodecyl benzoate]
54.5

---

Measured Solvency, Fluroxypyr of individual entries
experiment: Solvency test, active ingredient fluroxypyr; assay type: physicochemical; conditions: wt % active ingredient in solution; highest concentration with no crystals at room temperature

O=C(OC1CCCCC1)c1ccccc1 [Solvent E2, Cyclohexyl benzoate] | 64.8 wt %
CCC(C)OC(=O)c1ccccc1 (stereo not shown) [Solvent E1, Secondary butyl benzoate] | 61.3 wt %
CC(=O)OCCCCCC(C)C [Solvent C7, isooctyl acetate] | 60.2 wt %
CC(C)CCCCCOC(=O)c1ccccc1 [Solvent E3, Isooctyl benzoate] | 50.8 wt %

// lookup Solvency, Fluroxypyr for CCCCCCCCCC(=O)N(C)C [Solvent C5, linear N,N-dimethyldecanamide, reference compound]
62.2 wt %

// lookup Solvency, Fluroxypyr for CCC(C)OC(=O)c1ccc(C(=O)OC(C)CC)o1 (stereo not shown) [Solvent C1, Di-sec butyl furan-2,5-dicarboxylate, reference compound]
<15 wt %

// lookup Solvency, Fluroxypyr for CC(=O)OCCCCCCC(C)C [Solvent C8, isononyl acetate]
<15 wt %

// lookup Solvency, Fluroxypyr for CC(=O)OCc1ccccc1 [Solvent C4, Benzyl acetate, reference compound]
59.8 wt %

// lookup Solvency, Fluroxypyr for CC(C)(C)C(=O)OCc1ccccc1 [Solvent E4, Benzyl pivalate]
66.0 wt %

// lookup Solvency, Fluroxypyr for CN(C)C(=O)CCCCCC(C)(C)C [Solvent E5, N,N-dimethyl neodecanamide]
63.0 wt %

---

assay: Hydrolytic stability in pH 4.5 or pH 8.5 buffer; format: physicochemical; details: pH 4.5 buffer, 54° C., 14 days, 13C NMR
Hydrolysis at pH 4.5 of 3% or higher: Satisfied. Under 3%: Not satisfied.

CCCCOC(=O)c1ccccc1 [Solvent C3, Butyl benzoate, reference compound] | Not satisfied
CCCCCCCCCC(=O)N(C)C [Solvent C5, linear N,N-dimethyldecanamide, reference compound] | Not satisfied

Form field: Hydrolysis at pH 4.5 at least 3%? Entry: CN(C)C(=O)CCCCCC(C)(C)C [Solvent E5, N,N-dimethyl neodecanamide]
Not satisfied

Form field: Hydrolysis at pH 4.5 at least 3%? Entry: O=C(OC1CCCCC1)c1ccccc1 [Solvent E2, Cyclohexyl benzoate]
Not satisfied

Form field: Hydrolysis at pH 4.5 at least 3%? Entry: CC(=O)OCCCCCC(C)C [Solvent C7, isooctyl acetate]
Satisfied

Form field: Hydrolysis at pH 4.5 at least 3%? Entry: CC(C)(C)C(=O)OCc1ccccc1 [Solvent E4, Benzyl pivalate]
Not satisfied

Form field: Hydrolysis at pH 4.5 at least 3%? Entry: CC(=O)OCc1ccccc1 [Solvent C4, Benzyl acetate, reference compound]
Satisfied

Form field: Hydrolysis at pH 4.5 at least 3%? Entry: CCC(C)OC(=O)c1ccccc1 (centres unmarked) [Solvent E1, Secondary butyl benzoate]
Not satisfied

---

Measured Hydrolysis at pH 8.5 of individual entries
assay: Hydrolytic stability in pH 4.5 or pH 8.5 buffer; format: physicochemical; conditions: pH 8.5 buffer, 54° C., 14 days, 13C NMR
# unit: % | format: bare number

Recorded Hydrolysis at pH 8.5, per entry:
CC(=O)OCc1ccccc1 [Solvent C4, Benzyl acetate, reference compound] | 6.8
CCCCOC(=O)c1ccccc1 [Solvent C3, Butyl benzoate, reference compound] | 6.7

// lookup Hydrolysis at pH 8.5 for O=C(OC1CCCCC1)c1ccccc1 [Solvent E2, Cyclohexyl benzoate]
1.7

// lookup Hydrolysis at pH 8.5 for CCC(C)OC(=O)c1ccccc1 (centres unmarked) [Solvent E1, Secondary butyl benzoate]
3.7
